# assay_text: Oral bioavailability in cynomolgus monkey at 2 mg/kg administered as cassette dose and measured upto 24 hrs by LC-MS/MS analysis
# Assay type: ADME, organism-based, Macaca fascicularis
# measurement_context: in vivo
measurement_type: bioavailability (%)
Please respond with the number in % and leave the unit unwritten.

Answer with the recorded bioavailability for the compound listed here: `CC(C)(O)Cn1cc(-c2nc(NC3CCN(S(=O)(=O)C4CC4)CC3)ncc2C(F)(F)F)cn1`
21

====

# assay_text: Volume of distribution at steady state in cynomolgus monkey at 0.5 mg/kg, iv administered as cassette dose and measured upto 24 hrs by LC-MS/MS analysis
# Assay type: ADME, organism-based, Macaca fascicularis
# measurement_context: in vivo, read-out: Vdss
measurement_type: Vd (L/kg)
Please respond with the number in L/kg and leave the unit unwritten.

Cn1cnc(S(=O)(=O)N2CCC(Nc3ncc(C(F)(F)F)c(-c4cnn(CC(F)(F)F)c4)n3)CC2)c1
0.37

In the following, a different compound is considered.
Answer with the recorded Vd for the compound listed here: `CNCc1ccc(-n2cc(-c3nc(NC4CCN(S(C)(=O)=O)CC4)ncc3C#N)cn2)c(Cl)c1`
4.4
